All values here come from ChEMBL document CHEMBL5352409.

Test: in vitro
Conditions: human, liver microsomes
property_measured: half-life

Recorded half-life, per entry:
* CN1CCN(c2cccc(NC(=O)c3ccc(COCCC4CCN(c5nnc(NC(=O)Cc6ccccc6)s5)CC4)cc3)c2)CC1 | > 2 h
* CN1CCN(c2cccc(NC(=O)c3ccc(CN4CCN(c5nnc(NC(=O)Cc6ccccc6)s5)CC4)cc3)c2)CC1 | 1.04 h
* CCCCCCN1CCC(CNC(=O)c2ccc(COCCC3CCN(c4nnc(NC(=O)Cc5ccccc5)s4)CC3)cc2)CC1 | > 2 h

Record CCCCCCN1CCC(CNC(=O)c2cccc(COCCC3CCN(c4nnc(NC(=O)Cc5ccccc5)s4)CC3)c2)CC1 . Reported half-life: > 2 h
